For each record, write down the corresponding FACS reading.
- target-system: T1, Claudin 18.2 (CLDN18.2), expressed on CHOS-CLDN 18.2 / HEK293-CLDN 18.2 / HCC827-CLDN 18.2 cells (human, UniProt P56856-2 1-261)
- T1 construct: whole, on cells; The species is not repeated for the CHOS-CLDN 18.2 cells; also called claudin-18A2
- assay-summary: FACS, CHOS-CLDN18.2 cells, 1.250 µg/ml
One number for each entry.

- binder: "QP14581454 (antibody, human IgG1, kappa, V domains shown, Humanized from QP201202) VH: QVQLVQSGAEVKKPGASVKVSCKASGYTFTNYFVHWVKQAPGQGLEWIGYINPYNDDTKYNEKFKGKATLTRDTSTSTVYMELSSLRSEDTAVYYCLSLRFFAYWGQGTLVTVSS VL: DIVMTQSPDSLAVSLGERATISCKSSQSLLNSGNQKNYLTWYQQKPGQAPKLLIYWASTRESGVPDRFSGSGSGTDFTLTISSVQAEDVAVYFCQNDYSYPLTFGGGTKVEIKR"
  FACS reading: 56100
- binder: "QP14581453 (antibody, human IgG1, kappa, V domains shown, Humanized from QP201202) VH: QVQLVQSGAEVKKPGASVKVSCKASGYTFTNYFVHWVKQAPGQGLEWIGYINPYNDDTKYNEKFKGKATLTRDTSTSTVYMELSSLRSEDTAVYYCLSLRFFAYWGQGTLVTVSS VL: DIVMTQSPDSLAVSLGERATISCKSSQSLLNSGNQKNYLTWYQQKPGQAPKLLIYWASTRESGVPDRFSGSGSGTDFTLTISSLQAEDVAVYYCQNDYSYPLTFGGGTKVEIKR"
  FACS reading: 91400
- binder: "QP14561454 (antibody, human IgG1, kappa, V domains shown, Humanized from QP201202) VH: QVQLVQSGAEVKKPGASVKVSCKASGYTFTNYFVHWVRQAPGQGLEWMGYINPYNDDTKYNEKFKGRVTMTRDTSTSTVYMELSSLRSEDTAVYYCLSLRFFAYWGQGTLVTVSS VL: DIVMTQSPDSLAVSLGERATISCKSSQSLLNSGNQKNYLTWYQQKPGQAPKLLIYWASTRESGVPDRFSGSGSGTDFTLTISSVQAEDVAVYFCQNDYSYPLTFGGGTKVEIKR"
  FACS reading: 107000

Now look at this entry.
FACS reading recorded for this binder, QP201202 (antibody, human IgG1, V domains shown, Chimeric; also called 44C6) VH: EVQLQQSGPELVKPGASVKMSCKASGYTFTNYFVHWVKQKPGQGLEWIGYINPYNDDTKYNEKFKGKATLTSDKSSSTAYMDLSSLTSEDSAVYYCLSLRFFAYWGQGTLVTVSA VL: DIVMTQSPSSLTVTAGEKVTMSCKSSQSLLNSGNQKNYLTWYQQKPGQAPKLLIYWASTRESGVPDRFIGSGSGTDFTLTISHVQAEDLAVYFCQNDYSYPLTFGAGTNLELK , is 92700
